These data points were gathered from patent US20260166139A1.

TARGET_SYSTEM: T1, CTLA4 antigen on the surface of 293F-CTLA4 host cells (UniProt P16410 36-223, limits assumed)
T1 construct: whole, on cells
T1 sequence (looked up): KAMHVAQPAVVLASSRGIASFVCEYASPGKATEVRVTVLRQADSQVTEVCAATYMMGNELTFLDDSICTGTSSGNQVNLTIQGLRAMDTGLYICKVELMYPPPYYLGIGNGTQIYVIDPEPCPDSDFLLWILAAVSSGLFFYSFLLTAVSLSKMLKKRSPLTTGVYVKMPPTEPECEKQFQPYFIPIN
RUN_DESCRIPTION: flow cytometry, 293F-CTLA4 cells; antibody 25 nM
Here, each record is paired with measured fluorescence intensity data.
Reply with the value as a number alone.

BINDER	fluorescence intensity
8D2 recombinant antibody, 8D2(Re) (antibody, V domains shown) VH: EVKLDETGGGLVQPGRPMKLSCVASGFTFSDNWMNWVRQSPEKGLEWLAQIRNKPYNYETYYSDSVKGRFTISRDDSKSSVYLQMNNLRGEDMGIYYCTAQFAYWGQGTLVTVSA VL: DIQMTQSPASLSASVGETVTITCGTSENIYGGLNWYQRKQGKSPQLLIFGATNLADGMSSRFSGSGSGRQYSLKISSLHPDDVATYYCQNVLRSPFTFGSGTKLEI	873

[ask] Fill blank: measured fluorescence intensity of the binder monoclonal antibody 8D2 (antibody, V domains shown, Murine antibody purified from hybridoma supernatant; also called mAb 8D2; antibody secreted by the CTLA4-8D2 hybridoma cell line LT001) VH: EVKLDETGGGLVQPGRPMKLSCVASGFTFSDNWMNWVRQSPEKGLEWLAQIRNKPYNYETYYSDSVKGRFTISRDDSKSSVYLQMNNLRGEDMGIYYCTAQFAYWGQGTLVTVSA VL: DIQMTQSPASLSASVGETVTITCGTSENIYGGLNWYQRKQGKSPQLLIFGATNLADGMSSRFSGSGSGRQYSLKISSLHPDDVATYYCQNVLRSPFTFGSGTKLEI is ____.
[reply] 722

[ask] Fill blank: measured fluorescence intensity of the binder humanized antibody 8D2H3L3 (antibody, V domains shown) VH: EVQLVESGGGLVQPGGSLRLSCAASGFTFSDNWMNWVRQAPGKGLEWVAQIRNKPYNYETEYAASVKGRFTISRDDSKNSAYLQMNSLKTEDTAVYYCTAQFAYWGQGTLVTVSS VL: DIQMTQSPSSLSASVGDRVTITCRASENIYGGLNWYQQKPGKAPKLLIYGATSLASGVPSRFSGSGSGTDYTLTISSLQPEDFATYYCQNVLRSPFTFGSGTKLEIK is ____.
[reply] 1090

[ask] Fill blank: measured fluorescence intensity of the binder humanized antibody 8D2H1L1 (antibody, V domains shown) VH: EVQLVESGGGLVQPGGSMRLSCAASGFTFSDNWMNWVRQAPGKGLEWLAQIRNKPYNYETYYSDSVKGRFTISRDDSKNSVYLQMNSLKTEDTGVYYCTAQFAYWGQGTLVTVSS VL: DIQMTQSPSSLSASVGDRVTITCRTSENIYGGLNWYQRKQGKSPKLLIYGATNLASGMSSRFSGSGSGTDYTLKISSLHPDDVATYYCQNVLRSPFTFGSGTKLEIK is ____.
[reply] 1170

[ask] Fill blank: measured fluorescence intensity of the binder humanized antibody 8D2H2L2 (antibody, V domains shown, also called 8D2H2L2(20150327); 8D2H2L2(20140422)) VH: EVQLVESGGGLVQPGGSMRLSCAASGFTFSDNWMNWVRQAPGKGLEWLAQIRNKPYNYETYYSASVKGRFTISRDDSKNSVYLQMNSLKTEDTGVYYCTAQFAYWGQGTLVTVSS VL: DIQMTQSPSSLSASVGDRVTITCRTSENIYGGLNWYQRKPGKSPKLLIYGATNLASGVSSRFSGSGSGTDYTLTISSLQPEDVATYYCQNVLRSPFTFGSGTKLEIK is ____.
[reply] 1130
